# Tested on: CA46
# assay_summary: Cell viability, Promega Celltiter Fluor (72 h)
# Format: cell-based
# assay_conditions: Homo sapiens; CA46, Burkitt's Lymphoma, assay duration 72 hours; read-out: LP-284 IC50
pIC50: −log10 of the molar value.
quantity: pIC50

>>> reported("CC1=C(CN(O)C(N)=O)C2=C(C)C3(CC3)[C@@](C)(O)C(=O)C2=C1 [LP-284, hydroxyureamethyl acylfulvene]")
6.37
